OBSERVED PROPERTY: pKd
Schema: pKd number; meaning minus log10 of the concentration expressed in molar units.

Let me check: CC(CCC(O)C(C)(O)C1CCC2(O)C3=CC(=O)C4CC(O)C(O)CC4(C)C3CCC12C)COC(=S)Nc1ccc2c(c1)C(=O)OC21c2ccc(O)cc2Oc2cc(O)ccc21 (stereo not shown) , system MpLBD (Myzus persicae, UniProt A3EZJ9), measured pKd is 7.45

* * *

target: BtLBD (Bemisia tabaci); assay: FP titration of MB4628 with BtLBD; format: binding; details: Kd for MB4628, BtLBD without CHAPS, without CHAPS, 36 nM MB4628
Sequence (A0A142K0N3 entry or part of it): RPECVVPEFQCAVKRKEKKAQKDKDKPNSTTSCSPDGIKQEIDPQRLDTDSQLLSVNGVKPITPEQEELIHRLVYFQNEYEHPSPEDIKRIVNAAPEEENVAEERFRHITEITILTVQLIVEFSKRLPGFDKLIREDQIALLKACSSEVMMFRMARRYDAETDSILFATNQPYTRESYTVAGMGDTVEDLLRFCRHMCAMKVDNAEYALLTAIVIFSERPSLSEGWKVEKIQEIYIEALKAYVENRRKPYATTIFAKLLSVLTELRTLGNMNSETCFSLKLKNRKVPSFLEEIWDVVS
OBSERVED PROPERTY: pKd
Schema: pKd number; meaning minus log10 of the concentration expressed in molar units.

The compound listed as CC(CCC(O)C(C)(O)C1CCC2(O)C3=CC(=O)C4CC(O)C(O)CC4(C)C3CCC12C)COC(=S)Nc1ccc2c(c1)C(=O)OC21c2ccc(O)cc2Oc2cc(O)ccc21 (stereo not shown) shows pKd equal to 7.46
